# tested-system: Cyclin-dependent kinase 2 (Homo sapiens) (UniProt P24941);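 further: mean inhibition of CDK2 bound to cyclin A, from the GSK PKIS kinase inhibitor set screen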
# details: at 0.1 µM
Entries and their inhibition
Remember to quote the unit after the number.

Record excerpt, results attached:
CC1=C(C(=O)Nc2ccc3[nH]ncc3c2)C(c2ccc(Cl)c(Cl)c2)CC(=O)N1 (stereo not given)	0.45%
O=C1NC(=O)C(c2cccc(Cl)c2)=C1Nc1ccc(O)c(Cl)c1	1.84%
CN1CCC(C(=O)Nc2n[nH]c3nnc(-c4ccccc4)cc23)CC1	1.83%
NS(=O)(=O)c1cccc(-c2ccc3c(NC(=O)C4CC4)n[nH]c3c2)c1	0.27%

Now look at this one.
# input Consider the compound shown here: `CCn1c(-c2nonc2N)nc2c(C#CC(C)(C)O)nc(CN3CCCC3)cc21` What is its recorded inhibition?
# output 2.04%

====

Parameter inhibition: see the listing below.
# tested-system: Tyrosine-protein kinase SYK (Homo sapiens) (UniProt P43405)
# details: at 1 µM
# Description: GSK_PKIS: SYK mean inhibition at 1 uM [Nanosyn]
The reply should be a number in %, with the unit left off.

These solved cases illustrate the format of a correct answer.
CC(=O)Nc1cccc(C#Cc2cncnc2Nc2ccc(OCc3cccc(F)c3)c(Cl)c2)n1	-0.2
CCn1c(-c2nonc2N)nc2cnc(Oc3cccc(NC(=O)c4ccc(OCCN5CCOCC5)cc4)c3)cc21	1.88
NS(=O)(=O)c1ccc(N/N=C2\C(=O)Nc3ccc(C(=O)NCCc4c[nH]cn4)cc32)cc1	-0.45
NS(=O)(=O)c1cccc(-c2ccc3c(NC(=O)C4CC4)n[nH]c3c2)c1	0.39
O=C1NC(=O)C(c2ccc(Cl)cc2)=C1Nc1ccc(Cl)c(C(=O)O)c1	-0.32

# input Please report the recorded inhibition for `CN(C)c1cc2c(Nc3ccc4nc(Cc5ccccc5)[nH]c4c3)ncnc2cn1` .
# output 1.5

# input # lookup: inhibition of `Cc1ccc(NC(=O)c2ccnc(N3CCCC3)c2)cc1-c1ccc(C(=O)NCC2CC2)cc1`
# output -1.46

# input I have this compound here, COc1ccc2cc(-c3c(-c4ccncc4)nc(-c4ccc([S+](C)[O-])cc4)n3C)ccc2c1 (centres undefined) , and I need its recorded inhibition.
# output -1.16

# input Need inhibition of `COc1ccc(-c2nn3ncccc3c2-c2ccnc(Nc3ccc(Cl)c(C(F)(F)F)c3)n2)cc1` , thanks.
# output -1.11

====

# tested-system: Tyrosine-protein kinase Lck (Homo sapiens) (UniProt P06239);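 further: reported Lck percent inhibition is a mean value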
# Sequence (P06239 2-509 limits assumed): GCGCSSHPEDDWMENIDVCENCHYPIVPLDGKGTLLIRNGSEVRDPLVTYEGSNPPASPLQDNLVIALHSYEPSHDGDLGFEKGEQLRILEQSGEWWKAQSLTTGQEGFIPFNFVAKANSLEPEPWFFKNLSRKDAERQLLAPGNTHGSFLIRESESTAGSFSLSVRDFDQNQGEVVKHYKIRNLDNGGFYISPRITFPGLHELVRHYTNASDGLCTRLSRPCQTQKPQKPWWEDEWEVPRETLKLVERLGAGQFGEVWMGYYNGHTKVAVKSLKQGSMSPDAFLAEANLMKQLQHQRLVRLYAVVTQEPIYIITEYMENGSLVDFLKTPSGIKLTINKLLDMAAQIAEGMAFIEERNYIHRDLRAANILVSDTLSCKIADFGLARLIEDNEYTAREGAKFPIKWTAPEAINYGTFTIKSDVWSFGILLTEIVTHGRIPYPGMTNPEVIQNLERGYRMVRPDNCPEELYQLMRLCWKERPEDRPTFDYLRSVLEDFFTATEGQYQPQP
# details: at 1 µM
# inhibition per entry
State just the number; it will be interpreted in %.

Past entries and their recorded results:
COc1cc2ncn(-c3cc(O[C@@H](C)c4ccccc4Cl)c(C(N)=O)s3)c2cc1OC	19.6
CCn1c(-c2nonc2N)nc2c(N3CCCC3)nccc21	-0.36
O=C(Nc1n[nH]c2nc(-c3ccco3)c(Br)cc12)C1CC1	6.71
CCN1CCC(CC(=O)Nc2n[nH]c3nc(-c4cccs4)c(Br)cc23)CC1	4.73
c1cnn2ncc(-c3ccnc(Nc4ccc5c(c4)OCCO5)n3)c2c1	9.06
CCc1cccc(NC(=O)Nc2ccc(Oc3ccc4nc(NC(=O)OC)[nH]c4c3)cc2)c1	8.47

# input Give the measured inhibition of `Cc1ccc(C(=O)NC2CCCCC2)cc1-c1ccc(C(=O)NCC2CC2)cc1` .
# output 2.85

# input Which inhibition reading was recorded for the compound `CN1CCC(C(=O)Nc2n[nH]c3nnc(-c4ccccc4)cc23)CC1` ?
# output 4.09

# input Can you look up the measured inhibition of `NC(=O)c1ccc(-c2nc(-c3ccccn3)c(-c3ccc4c(c3)OCO4)[nH]2)cc1` for me?
# output 4.07

# input # inhibition lookup, item CC1=C(C(=O)Nc2ccc3[nH]ncc3c2)C(c2ccc(F)cc2)NC(=O)N1 (stereo not given)
# output 3.1

====

# tested-system: Dual specificity protein kinase CLK3 (Homo sapiens) (UniProt P49761);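 further: each value is the mean inhibition of CLK3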
# Sequence (P49761 whole entry, looked up): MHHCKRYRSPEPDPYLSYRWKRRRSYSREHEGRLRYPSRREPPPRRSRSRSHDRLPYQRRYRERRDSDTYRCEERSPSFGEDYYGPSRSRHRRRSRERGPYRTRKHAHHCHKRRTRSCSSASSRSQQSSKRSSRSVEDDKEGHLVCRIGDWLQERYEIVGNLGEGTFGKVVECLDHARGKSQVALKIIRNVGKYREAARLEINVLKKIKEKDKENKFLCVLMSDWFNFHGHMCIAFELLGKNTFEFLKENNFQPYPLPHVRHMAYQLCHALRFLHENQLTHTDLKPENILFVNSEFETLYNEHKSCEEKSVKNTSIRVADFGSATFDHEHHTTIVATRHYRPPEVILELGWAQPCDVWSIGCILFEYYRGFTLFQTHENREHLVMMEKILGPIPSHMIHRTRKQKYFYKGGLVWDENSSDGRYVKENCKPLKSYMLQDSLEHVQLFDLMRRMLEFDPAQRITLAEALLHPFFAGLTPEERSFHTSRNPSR
# details: at 1 µM
property: inhibition (%)
The reply should contain only the number, in %.

Recorded results for 4 compounds are shown here.
O=C1NC(=O)C(c2ccccc2Cl)=C1Nc1cccc(O)c1	21.8
COC(=O)Nc1nc2cc(Oc3cccc(NC(=O)Nc4cc(C(F)(F)F)ccc4F)c3)ccc2[nH]1	0.16
CC(C)=Cc1cccc2c1/C(=N/Nc1ccc(S(N)(=O)=O)cc1)C(=O)N2	1.83
COC(=O)Nc1nc2cc(Oc3ccc(NC(=O)Nc4cccc(C(=O)O)c4)cc3)ccc2[nH]1	0.74

# input What does the record list as inhibition for `CN1CCC(C(=O)Nc2n[nH]c3nnc(-c4ccccc4)cc23)CC1` ?
# output 2.52

====

Quick reference for inhibition among some molecules
# tested-system: Sphingosine kinase 1 (Homo sapiens) (UniProt Q9NYA1);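 further: mean percent inhibition of SPHK1 activity, measured within the GSK PKIS screening panel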
# Sequence (Q9NYA1 whole entry): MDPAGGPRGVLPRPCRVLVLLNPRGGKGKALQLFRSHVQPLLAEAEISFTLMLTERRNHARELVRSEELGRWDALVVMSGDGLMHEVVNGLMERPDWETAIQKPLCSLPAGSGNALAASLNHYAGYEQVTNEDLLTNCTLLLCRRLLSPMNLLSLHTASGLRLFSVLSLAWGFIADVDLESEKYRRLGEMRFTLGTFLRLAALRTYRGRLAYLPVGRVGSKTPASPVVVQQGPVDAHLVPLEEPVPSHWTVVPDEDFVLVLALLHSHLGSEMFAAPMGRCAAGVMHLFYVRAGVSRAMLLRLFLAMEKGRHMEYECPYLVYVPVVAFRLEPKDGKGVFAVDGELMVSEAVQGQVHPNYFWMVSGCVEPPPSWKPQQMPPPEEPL
# details: at 0.1 µM
Your answer is read as %, so omit the unit and give the number.

CS(=O)(=O)CCNCc1nc(-c2ccc3ncnc(Nc4ccc(F)c(Cl)c4)c3c2)cs1	-0.56
COc1cc2ncn(-c3cc(OCc4ccccc4C(F)(F)F)c(C(N)=O)s3)c2cc1OC	1.28

# input I have this molecule here, `COc1cc2ncn(-c3cc(O[C@H](C)c4ccccc4Cl)c(C(N)=O)s3)c2cc1OC` , and I need its recorded inhibition.
# output 1.83

# input May I ask what inhibition has been recorded for `CS(=O)(=O)CCN(CC#N)Cc1ccc(-c2ccc3ncnc(Nc4ccc(OCc5cccc(F)c5)c(Cl)c4)c3c2)o1` ?
# output 1.82

# input Using the record for `[O-][S+]1CCN(Cc2ccc(-c3ccc4ncnc(Nc5ccc(OCc6ccccc6)c(F)c5)c4c3)o2)CC1` , report its inhibition.
# output -0.6

# input I am curious: what inhibition value has been reported for `O=C1NC(=O)C(c2ccc(Cl)cc2)=C1Nc1ccc(Cl)c(C(=O)O)c1` ?
# output -1.27

# input What value of inhibition has been recorded for this entry: `Cc1nn(C)c2cc(N(C)c3ccnc(Nc4cccc(S(N)(=O)=O)c4)n3)ccc12`
# output -0.2

# input Record request: inhibition value, item `CCn1c(-c2nonc2N)nc2ccncc21`
# output -1.27

# input Give its inhibition value. Item: `CCN1CCC(CC(=O)Nc2n[nH]c3nc(-c4cccs4)c(Br)cc23)CC1`
# output -0.97

# input What inhibition value was documented for this molecule, `COc1cc(C=NNc2ncnc3c2cnn3-c2ccccc2)ccc1O` ?
# output -0.86

# input Request the reported inhibition associated with `COc1cc2ncn(-c3cc(O[C@@H](C)c4ccccc4Cl)c(C(N)=O)s3)c2cc1OC`
# output 1.31

# input Field request: inhibition | item: `COc1cc2ncn(-c3cc(OCc4ccccc4Cl)c(C(N)=O)s3)c2cc1OC`
# output 2.8

# input # get_value(readout='inhibition', item= CC1=C(C(=O)Nc2ccc3[nH]ncc3c2)C(c2ccc(F)cc2)NC(=O)N1 (stereo not given) )
# output 1.05

# input State the recorded inhibition for this entry: `COc1ccc(-c2coc3ncnc(N)c23)cc1`
# output -2.41

# input Field request: inhibition | item: `Nc1nc(-c2ccccn2)c(-c2ccc3ncccc3n2)s1`
# output -1.16

# input Given the molecule `CS(=O)(=O)CCNCc1ccc(-c2ccc3ncnc(Nc4ccc(OCc5ccccc5)c(Cl)c4)c3c2)o1` , what is its reported inhibition?
# output 1.23

# input For the molecule shown here, `Cc1nnc(-c2ccc(C)c(-c3ccc(C(=O)Nc4cccc(C#N)c4)cc3)c2)o1` , give the reported inhibition.
# output -2.17

# input What value of inhibition has been recorded for this entry: `CC(=O)Nc1cccc(C#Cc2cncnc2Nc2ccc(OCc3cccc(F)c3)c(Cl)c2)n1`
# output 0.46

# input Need inhibition, item `CCn1c(-c2nonc2N)nc2cnc(Oc3cccc(NC(=O)c4ccc(OCCN5CCOCC5)cc4)c3)cc21`
# output 3.68

# input Looking for the measured inhibition of `CCn1c(-c2nonc2N)nc2c(C#CC(C)(C)O)nc(CN3CCCC3)cc21` , can you help?
# output 0.49

====

# tested-system: MAP kinase-interacting serine/threonine-protein kinase 2 (Homo sapiens)
# details: at 0.1 µM
# Description: GSK_PKIS: MNK2 mean inhibition at 0.1 uM [Nanosyn]
property: inhibition (%)
Write the number in % without appending the unit.

COc1cc2ncn(-c3cc(OCc4ccccc4Cl)c(C(N)=O)s3)c2cc1OC	1.58
Cc1ccc(C(=O)NC2CCCCC2)cc1-c1ccc(C(=O)NCC2CC2)cc1	0.32
O=C(Nc1n[nH]c2nc(-c3ccco3)c(Br)cc12)C1CC1	1.26
CCCN1CCC=C(c2ccc(Nc3nc(Nc4ccccc4C(N)=O)c4cc[nH]c4n3)c(C)c2)C1	1.78

# input Name the recorded inhibition for `CCn1c(-c2nonc2N)nc2cnc(Oc3cccc(NC(=O)c4ccc(OCCN5CCOCC5)cc4)c3)cc21` .
# output 3.73

====

# tested-system: Mitogen-activated protein kinase 3 (Homo sapiens)
# details: at 0.1 µM
property: inhibition
Don't forget the unit after the number, please.

CCN1CCC(CC(=O)Nc2n[nH]c3nc(-c4cccs4)c(Br)cc23)CC1	-1.1%

# input Request - read-out inhibition | tested on Mitogen-activated protein kinase 3 (Homo sapiens) | molecule `Cc1nnc(-c2ccc(C)c(-c3ccc(C(=O)Nc4cccc(C#N)c4)cc3)c2)o1`
# output 3.17%

# input # query: inhibition | item `COc1cccc(-n2ncc3c(N/N=C/c4cccc(F)c4)ncnc32)c1` | system: Mitogen-activated protein kinase 3 (Homo sapiens)
# output 1.61%

# input Which inhibition is reported with Mitogen-activated protein kinase 3 (Homo sapiens) for this entry: `Cc1ccc(C(=O)NC2CCCCC2)cc1-c1ccc(C(=O)NCC2CC2)cc1` ?
# output 2.55%

# input Lookup: inhibition / Mitogen-activated protein kinase 3 (Homo sapiens) / `CS(=O)(=O)CCNCc1ccc(-c2ccc3ncnc(Nc4ccc(OCc5cccc(F)c5)c(C(F)(F)F)c4)c3c2)o1`
# output 2.83%

# input Write down the reported inhibition of `NC(=O)c1ccc(-c2nc(-c3ccccn3)c(-c3ccc4c(c3)OCO4)[nH]2)cc1` , test system: Mitogen-activated protein kinase 3 (Homo sapiens).
# output 1.34%

# input Query the reported inhibition for Mitogen-activated protein kinase 3 (Homo sapiens); item: `O=C1NC(=O)C(c2ccc(Cl)cc2)=C1Nc1ccc(Cl)c(C(=O)O)c1`
# output -1.99%

# input // map `O=C(Nc1n[nH]c2nc(-c3ccco3)c(Br)cc12)C1CC1` to recorded inhibition (system: Mitogen-activated protein kinase 3 (Homo sapiens))
# output 5.33%

# input Request: inhibition, test system Mitogen-activated protein kinase 3 (Homo sapiens), entry `Fc1cccc(COc2ccc(Nc3ncnc4sc(-c5cccs5)cc34)cc2Cl)c1`;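 further: each value is a mean inhibition figure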
# output 1.1%

# input Give recorded inhibition with Mitogen-activated protein kinase 3 (Homo sapiens) for the following molecule: `COc1cc2ncn(-c3cc(O[C@H](C)c4ccccc4Cl)c(C(N)=O)s3)c2cc1OC`
# output 2.92%
